- protocol text: folding stability dG unfold from chymotrypsin proteolysis; higher = more stable
Classify by measured folding stability dG unfold: True if it is equal to or exceeds 2 kcal/mol, False if it is smaller.

Illustrative cases are given below, each with its answer.
SAGGMKTIEITIKTEDGYTIKIKITEKDGKLYIEIEIEDPNMSEEQREKIKKEIEELAKKLNIKVEIPSAGG [r13_774_TrROS_Hall]	True
SAGGSAGGDPNDKPMKFELIETFTIPGNLNEAKDFLEDLLPPNWAINVEQEPGMITITIYKMKDSAGGSAGG [r6_953_TrROS]	True
SAGGSAGMPSVTPVTVQMKGSREEAEAVAEELIEELRAKDPSVKVEAVEFSELPDGTYRVTITVTNSAGGSA [r15_718_JUSTAS]	True
SAGGSAKKKKVTITIEVVKNKETGEYLVRIKIKVDGKEYEIVMSEDELKALIDAGVKIEKIEVYPRSAGGSA [r15_783_TrROS_Hall]	True
SAGGSAGGSAGGLPEDDNYVRVKITFTIMMMEFDPKNGKMQMFPISIEIEIYIPPGAELSAGGSAGGSAGGS [r10_133_TrROS]	True
SAGKITITVEKNEDGELTVTIRIEKDGKPIEEITFESEEEALEAAKKLAEELKKKYPDLKIEVEIVPRPSAG [r5_383_TrROS_Hall]	True
SAGGMVTLTLPSPDGSTLTVTVEKDPNADYYRATVTTHHPDGTVTVTESVIHPDGTTTTLATTTLPASAGGS [r16_213_JUSTAS]	True
SAGGIAEAIGEAIAKAPGVAEVEVDIEITKIEPTPGDGAYAHIDIRVRARHPVTGEEVELRFDIVFPLDSAG [r5_176_TrMRF]	True
SMYVIETSANKTYTVNVPPDGLVTITYPDGSTETRKFTSEEDLEAFAEELSKKYPDAPATIKPVPLEELGSA [r9_1206_JUSTAS]	False
SAGGSAGGSAGMRLLVEKPEGPVPTVTEVEVPLPEGDKARLEEVKEELKKKGYKKVIFLDSAGGSAGGSAGG [r11_196_JUSTAS]	False

Enquiry: # bool: folding stability dG unfold of SAGGSAGGSIEIPGGYTIPSSLSEEEAKEAAKKLFLEKNPELGVKEVEVKVETKNGKKTITVVKSAGGSAGG [r6_558_JUSTAS] >= 2 kcal/mol
Return: False

Enquiry: Is folding stability dG unfold at least 2 kcal/mol? Consider SAGGTIEEIRDQLKNMPPGYHVDLKIPNGRSHSFGSLEDIEDLPITNPNGRKIEITEVQPMPPPDEQSAGGS [r16_680_TrROS]
Return: False

Enquiry: Reported folding stability dG unfold at or above 2 kcal/mol? SAGGSAGGSEKVEIEREFKLPDPNGKPFRFTVEIEVEPRNDGLKIEITEVEGPWMRDAIKKLLSAGGSAGGS [r12_743_TrROS]
Return: False

Enquiry: Please tell me: is the sequence SAGKTIYIQGPLDELRKLPEIKEVEKTGNHWTLELPNVPIHIEIEPPPPVPVVPPEMPKEQMKEYMKKMSAG [r5_2_TrROS] at or over 2 kcal/mol in terms of folding stability dG unfold?
Return: False

---

- protocol text: folding stability dG unfold (combined trypsin and chymotrypsin); higher = more stable
Reported folding stability dG unfold is given for each of the following sequences.
Value expressed in kcal/mol; do not type the unit.

SAGGEPRLGRVLLDIDIAVDPERAEREEDREEALERALEIAERAEARLRELDPDVPVVVNIRLLDVGSAGGS [r8_183_TrMRF]	0.31
SAGGETKTITIKVDGKLVTITVKKNKNGEELVTVKVYENGKLVEEVTMSKDELEELAKKLGLSVEELKSAGG [r13_108_TrROS_Hall]	3.62
SAGGSAGGSAGASPTAPAVTVEVKTEEVPNNDLLKTTTTTYFPGTGTTVTTETILPPGLGSAGGSAGGSAGG [r11_746_JUSTAS]	-0.00225
SAGGSAGGSAGGKIKDAEIVSVEYDPETGVLYMEVKLEDGSTYRIRFDLKTNKLTIEPVSAGGSAGGSAGGS [r10_674_TrROS_Hall]	4.56
SAGGSMVKVEVHYDPERDLVLVTVEAPDDPELVDEFVERMKKLGAKRVEVFRFPEDGKVRILVEIGSAGGSA [r2_358_TrMRF]	4.36
SAGGSAGGSLKPGQPYIMIRIKIQHPNGNTRTFNIMVPWNDIPQILDFLESHGFKIKDIEIFPSAGGSAGGS [r12_986_TrROS]	5.09
SASASQTTIEYTVPVPAGTSPDEPLTLTVTLPDKEIPIEVGTLENLPPDATVTITLDTTEPTFTVTLTPSAG [r14_554_JUSTAS]	0.799
SAGGSAMREIRVGDTVVRILSIDPSTGEVHIAVREDLPPETIEAARRALEEAGLRFRVEPVPEELLSAGGSA [r15_570_TrMRF]	2.15
SKYRILIHTPNPGMPPEEIIDELEEPGFKDVEVVDSPSELKELPPNYDIVIMFHNGQFQISIFPPEELDKSA [r9_750_TrROS]	0.937
AARSVDVEVEELSTVTPAGGRTRLLRVRAYVPETGRTAEVPYRAVLLPDGSERPFGTAEELADRIARLLVSS [r1_77_TrMRF]	-0.0373

Enquiry: Which value of folding stability dG unfold has been reported for SPKIKIVSVSRTAGGALVALLELEDRPITLYRPLALPYILASAEIPGTNEVKTILAPSSISPEEIAKLLGSA [r9_522_TrMRF] in the records?
Return: 1.75
